Source of measurements: patent US20240254227A1

# Target or test system: T1, human CD300LB on primary human macrophages (human, UniProt A8K4G0 18-201)
# T1 sequence: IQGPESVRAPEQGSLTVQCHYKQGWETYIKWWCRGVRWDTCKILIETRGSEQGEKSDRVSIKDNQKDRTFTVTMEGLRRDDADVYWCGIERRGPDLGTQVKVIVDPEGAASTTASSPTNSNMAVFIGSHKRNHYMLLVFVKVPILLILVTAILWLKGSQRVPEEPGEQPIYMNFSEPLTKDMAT
# Procedure details: flow cytometry, primary human macrophages donor 1275, 10 ug/mL antibody, isotype control subtracted

# Binder, gMFI
rows = [
    ("anti-CD300LB antibody CD-08 (antibody, V domains shown) VH: EVQLLESGGGLVQPGGSLRLSCAASGFTFSNAWMSWVRQAPGKGLEWVSVISGSGGRTYYADSVKGRFTISRDNSKNTLYLQMNSLRAEDTAVYYCARDGTTVAPKGMDVWGQGTTVTVSS VL: DIQMTQSPSSLSASVGDRVTITCQASQDINNYVNWYQQKPGKAPKLLIYAASNLQSGVPSRFSGSGSGTDFTLTISSLQPEDFATYYCQQSYSPPYTFGQGTKLEIK", "3580 gMFI"),
]
